# study.system: 20S proteasomes purified from a B-LCL cell line (immunoproteasomes) (Homo sapiens, UniProt P28062+P28065+P40306)
# Construct: 20S proteasomes were purified from a B-LCL cell line; endogenous in cells; purified after Groettrup et al. 1995
# test: In vitro proteasome mediated cleavage analysis
# Format: biochemical
# Set-up: key: intact epitope found in digestion fragments: (+), present; (-), not present
# details: intact epitope found in digestion fragments after 1 h digestion
endpoint.label: Intact in fragment

CC(C)C[C@H](NC(=O)[C@H](CC(C)C)NC(=O)[C@H](CCC(=O)O)NC(=O)[C@H](CCCNC(=N)N)NC(=O)[C@H](CC(C)C)NC(=O)[C@H](CCCNC(=N)N)NC(=O)[C@H](C)NC(=O)[C@H](Cc1c[nH]cn1)NC(=O)[C@H](CC(C)C)NC(=O)[C@@H](N)Cc1ccc(O)cc1)C(=O)O; +
CC(C)C[C@H](NC(=O)[C@H](C)N)C(=O)N[C@@H](Cc1ccc(O)cc1)C(=O)N[C@H](C(=O)N[C@@H](CC(=O)O)C(=O)N[C@@H](CO)C(=O)N[C@@H](CC(C)C)C(=O)N[C@@H](Cc1ccccc1)C(=O)N[C@@H](Cc1ccccc1)C(=O)O)C(C)C; +
